System: Plasmodium falciparum NF54 stage IV/V gametocytes
Assay: % inhibition of gametocyte viability (luciferase reporter); higher = more inhibition
Details: 5 µM; 48 h
Record form. Attribute: % inhibition of gametocyte viability. Fill in for each entry.
Write the number in % without appending the unit.

// query Which % inhibition of gametocyte viability reading was recorded for the molecule `Nc1nc(F)nc2c1ncn2[C@H]1O[C@@H](CO)[C@H](O)[C@@H]1O` ?
// result 35.8

// query Next entry: `C[C@H]1COc2c(N3CCN(C)CC3)c(F)cc3c(=O)c(C(=O)O)cn1c23`
// result 0.53

---

Tested on: Plasmodium falciparum NF54 stage IV/V gametocytes
Experiment: % inhibition of gametocyte viability (luciferase reporter); higher = more inhibition
Details: 5 µM; 48 h
Record form. Attribute: % inhibition of gametocyte viability. Fill in for each entry.
Write the number in % without appending the unit.

// query Which % inhibition of gametocyte viability reading was recorded for the molecule CC(N)C12CC3CC(CC(C3)C1)C2 (stereo not given) ?
// result 3.24

// query Next entry: `Nc1nnnn1CCOc1c2[nH]c3ccc(Cl)cc3c2cc2c1[nH]c1ccc(Cl)cc12`
// result 31.2

// query Next entry: `O=C(O)/C=C/C=C/c1cccc(Oc2cc(Cl)cc(Cl)c2)c1`
// result 0.936

// query Next entry: `CSC[C@H]1CN(Cc2c[nH]c3c(N)ncnc23)C[C@@H]1O`
// result 6.79

---

Test system: Plasmodium falciparum NF54 stage IV/V gametocytes
Assay: % inhibition of gametocyte viability (luciferase reporter); higher = more inhibition
Settings: 5 µM; 48 h
reported property: % inhibition of gametocyte viability (%)
Write the number in % without appending the unit.

// query Reported % inhibition of gametocyte viability for Plasmodium falciparum NF54 stage IV/V gametocytes, given `NC(=O)c1cnccn1` ?
// result 14.8

// query Next entry: `CN(C)CCNC(=O)c1cccc2cccnc12`
// result 10.1

// query Next entry: `Nc1nc(=O)c(Br)c(-c2cccc(Cl)c2)[nH]1`
// result 5.01

// query Next entry: CCCCC(CC)CNC(=N)NC(=N)NCCCCCCNC(=N)NC(=N)NCC(CC)CCCC (stereo not given)
// result 100

// query Next entry: `CC(C)(C)NC(=O)[C@@H]1CN(Cc2cnc3occc3c2)CCN1C[C@@H](O)C[C@@H](Cc1ccccc1)C(=O)N[C@H]1c2ccccc2C[C@H]1O`
// result 15.5

// query Next entry: `CC(C)/N=c1\cc2n(-c3ccc(Cl)cc3)c3ccccc3nc-2cc1Nc1ccc(Cl)cc1`
// result 16

// query Next entry: `Nc1nc(Nc2ccc3nc(-c4ccc(F)cc4)cc(N)c3c2)cc(-c2ccccc2)n1`
// result 98.6

// query Next entry: `CN(C)CCCNC(=O)c1ccc(-c2cc(O)c3ncccc3c2)cc1`
// result 23.3

// query Next entry: `O=C(NN1C(=O)[C@@H]2C3C=CC([C@H]4C[C@@H]34)[C@@H]2C1=O)c1ccc(C(F)(F)F)cc1`
// result 4.75

// query Next entry: `CN(C(=O)C1(c2ccc(Cl)cc2)CCC1)c1ccccc1`
// result 1.35

// query Next entry: `COc1ccccc1NC(=O)c1ccccc1Sc1ccc([N+](=O)[O-])cc1`
// result 8.85

---

Record form. Attribute: % inhibition of gametocyte viability. Fill in for each entry.
System: Plasmodium falciparum NF54 stage IV/V gametocytes
Assay: % inhibition of gametocyte viability (luciferase reporter); higher = more inhibition
Conditions: 1 µM; 48 h
Write the number in % without appending the unit.

// query Which % inhibition of gametocyte viability reading was recorded for the compound `O=C(Nc1ccc(N2CCN(C(=O)c3ccccc3)CC2)cc1)c1ccc2c(c1)OCO2` ?
// result 9.21

// query Next entry: `O=C(NCCN1CCCCC1)c1cccc(C(F)(F)F)c1`
// result 12.3

// query Next entry: O=C(O)C(Cc1c[nH]c2ccccc12)N1C(=O)c2ccccc2C1=O (stereo unspecified)
// result 13

// query Next entry: `Cc1ccn2c(C(=O)NCc3ccccc3)c(C)nc2c1`
// result 2.75

// query Next entry: `CCOc1noc2cc(OCCC3CCN(c4ccc(C)nn4)CC3)ccc12`
// result 6.47

// query Next entry: `O=[N+]([O-])/C(Br)=C/c1ccc(Br)o1`
// result 4.3

// query Next entry: `O=c1oc2ccc(Br)cc2cc1CSc1ncc[nH]1`
// result 4.59

// query Next entry: `C[C@H]1COc2c(N3CCN(C)CC3)c(F)cc3c(=O)c(C(=O)O)cn1c23`
// result 18.2

// query Next entry: `Cc1nc2ccc(Cl)cc2c(-c2ccccc2)c1CC(=O)O`
// result 7.85

---

Tested on: HepG2-A16-CD81;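 note: HepG2-A16-CD81 hepatoma cells plated as in the liver-stage assay but without sporozoites, with DMSO wells as negative and 25 µM puromycin as positive control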
Experiment: % inhibition of HepG2 viability (CellTiter-Glo); higher = more toxic
Details: 5 µM
reported property: % inhibition of HepG2 viability (%)
Write the number in % without appending the unit.

// query Which % inhibition of HepG2 viability reading was recorded for the compound `CO/N=C(\C(=O)N[C@@H]1C(=O)N2C(C(=O)OCOC(=O)C(C)(C)C)=C(/C=C\c3scnc3C)CS[C@H]12)c1csc(N)n1` ?
// result -3.45

// query Next entry: `Cc1cc(Nc2ccc(F)cc2)nc(SCc2nc3ccccc3[nH]2)n1`
// result 4.62

// query Next entry: `O=C(O)c1sccc1S(=O)(=O)n1ccc2cc(Br)ccc21`
// result -1.44

// query Next entry: COc1ccc(C2CNC(=O)C2)cc1OC1CCCC1 (stereo unspecified)
// result -2.26

// query Next entry: `O=C(O)[C@H]1C2CCC(CC2)[C@@H]1Nc1nc(-c2c[nH]c3ncc(F)cc23)ncc1F`
// result -9.1

// query Next entry: `CC[C@@H]1C(=O)OC[C@@H]1Cc1cncn1C`
// result -1.73

---

Test system: Plasmodium falciparum NF54 stage IV/V gametocytes
Experiment: % inhibition of gametocyte viability (ATP bioluminescence); higher = more inhibition
Details: 5 µM; 24 h
reported property: % inhibition of gametocyte viability

// query Reported % inhibition of gametocyte viability for Plasmodium falciparum NF54 stage IV/V gametocytes, given `NC(=O)c1[nH]c2ccc(S(N)(=O)=O)cc2c1-c1ccccc1` ?
// result < 0%

// query Next entry: `CC1(C)[C@H](C(=O)O)N2C(=O)C[C@H]2S1(=O)=O`
// result < 0%

// query Next entry: `CC(=O)O[C@H]1C[C@@]2(C)[C@@H](C[C@@H](O)[C@H]3[C@@]4(C)CC[C@@H](O)[C@@H](C)[C@@H]4CC[C@@]32C)/C1=C(\CCC=C(C)C)C(=O)O`
// result < 0%

// query Next entry: Cc1nc(-c2ccc(C3N(C)c4ccc(F)cc4C(=O)N3c3ccccc3)s2)cs1 (stereo not given)
// result < 0%

// query Next entry: `CCOc1noc2cc(OCCC3CCN(c4ccc(C)nn4)CC3)ccc12`
// result 0.657%

// query Next entry: `OB1OCc2cc(Cl)ccc21`
// result < 0%

// query Next entry: `CCCCCCC1c2ccc(O)cc2Oc2cc(O)ccc21`
// result 15.4%

// query Next entry: `CC(C)(C)c1cc(CCC(=O)N2CCC2)cc(C(C)(C)C)c1O`
// result < 0%

// query Next entry: `NCCCc1ccccc1C(=O)Nc1ncc([N+](=O)O)s1`
// result < 0%

// query Next entry: `Nc1nc2c(Cc3cccnc3)c[nH]c2c(=O)[nH]1`
// result < 0%

---

Record form. Attribute: % inhibition of asexual blood stage proliferation. Fill in for each entry.
Test system: Plasmodium falciparum NF54 asexual blood stage
Experiment: % inhibition of asexual blood stage proliferation (pLDH); higher = more inhibition
Conditions: 2 µM; 72 h
Write the number in % without appending the unit.

// query Reported % inhibition of asexual blood stage proliferation for Plasmodium falciparum NF54 asexual blood stage, given `Nc1nc(=O)c(Br)c(-c2cccc(Cl)c2)[nH]1` ?
// result 18.2

// query Next entry: `O=c1nc(N2CCN(CC3CCCCC3)CC2)sc2c([N+](=O)[O-])cc(C(F)(F)F)cc12`
// result 37

// query Next entry: CCc1ccc(C2CC(C(F)(F)F)n3ncc(C(=O)NCc4ccc(OC)cc4)c3N2)cc1 (stereo not given)
// result 37.2

// query Next entry: `NC(=O)C(c1ccccc1)(c1ccccc1)[C@H]1CCCN(CCc2ccc3c(c2)CCO3)C1`
// result -5.36

// query Next entry: `O=C(NCc1ccc2c3c(cccc13)C(=O)N2)c1cccs1`
// result 6.3

// query Next entry: `O=C1NC(=O)C(Br)=C1Br`
// result 42.2

// query Next entry: COc1cc(C)c2c(Oc3cccc(C(F)(F)F)c3)c(OC)cc(NC(C)CCCN)c2n1 (stereo not given)
// result 56.5

// query Next entry: `Cc1ccc(S(=O)(=O)Nc2cccc3cccnc23)cc1`
// result 55

// query Next entry: `C[Si]1(C)CCN(Cc2cc(-c3ccc(Cl)cc3)n(-c3ccc(Cl)cc3)n2)CC1`
// result 57

// query Next entry: `OC[C@@H]1CC[C@H](n2cnc3c(O)ncnc32)O1`
// result 47.1
